- TEST NAME: chemical genetic growth profiling, strain panel (AID 1159580);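 note: tested at 20 µM; growth read once vehicle control cultures reached saturation at 30 °C; 1 = growth at the plate median or of vehicle wells; lower values mean less growth of the strain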
- RUN CONDITIONS: S. cerevisiae deletion strains, growth OD, locus YDR477W, strain SNF1, active compounds read low
Among all 5,500 compounds or so, about 2,000 (36%) were called active. Another 18% or so got no clear call; they are omitted. The list shows a part of the results.
API: label(entry) gives Condition met if the entry's normalized growth is strictly smaller than 0.9; on equality or larger values it gives Condition not met.

| STRUCTURE SMILES STRING | DISCRETE LABEL |
| --- | --- |
| N#C/C(=N/Nc1cccc(C(F)(F)F)c1)C(=O)c1csc(-c2cccnc2)n1 | Condition met |
| C/C(=N/NC(=O)c1ccc(C(C)(C)C)cc1)c1ccccc1O | Condition not met |
| Cc1ccc2nc(-c3ccc([N+](=O)[O-])o3)oc(=O)c2c1 | Condition met |
| O=c1c(-c2ccccc2)c(O)c2cccc3c4ccccc4n1c23 | Condition met |
| CSc1nnc(COc2ccc(C)c3c2CCC3)n1-c1ccccc1 | Condition not met |
| CS/C(Nc1cccc(C(F)(F)F)c1)=C(/C#N)S(=O)(=O)c1ccc(Cl)cc1 | Condition not met |
| CC(=O)c1ccccc1C(=O)c1ccc(C(C)(C)C)cc1 | Condition not met |
| O=C(Nc1cc2c(s1)-c1cc(Cl)ccc1SC2)Oc1ccccc1 | Condition not met |
| COc1cc(N2C(=O)C=CC2=O)cc(OC)c1OC | Condition met |
| S=C(Nc1ccc(Cl)cc1)Nc1ccc(Cl)cc1 | Condition met |
| FC(F)(F)c1cc(-c2ccc(Cl)cc2)n[nH]1 | Condition met |
| O=C(c1cc2c(s1)-c1ccccc1CC2)N1CCN(Cc2ccccc2)CC1 | Condition not met |

---

- TEST NAME: chemical genetic growth profiling, strain panel (AID 1159580)
- RUN CONDITIONS: S. cerevisiae deletion strains, growth OD, locus YNL224C, strain SQS1, active compounds read low
About 2,000 (36%) of roughly 5,500 compounds were called active. Another 18% or so got no clear call; they are omitted. Some of the results follow.
Known normalized growth of a selection of compounds

| COMPOUND | normalized growth |
| --- | --- |
| N[C@@H](CCl)C(=O)O | 0.996 |
| CN1CCN(CC(=O)N2c3ccccc3C(=O)Nc3cccnc32)CC1 | 1.01 |
| Cn1c(=O)c2[nH]c(-c3ccccc3)nc2n(C)c1=O | 0.992 |
| NCC(O)c1cc(O)c(O)cc1F (stereo not drawn) | 1.01 |
| COc1ccc(CCN(C)CCCC(C#N)(c2cc(OC)c(OC)c(OC)c2)C(C)C)cc1OC (stereo not drawn) | 1.01 |
| NCCc1c[nH]c2ccccc12 | 1 |
| NC(Cc1cc(O)c(O)cc1O)C(=O)O (stereo not drawn) | 1.03 |
| CC(C)C1C2CCC(C2)C1N (stereo not drawn) | 1.03 |
| Cc1ccc(=O)n(-c2ccccc2)c1 | 1.01 |
| CCN(CC)CCNC(=O)c1cc(Cl)c(N)cc1OC | 1.01 |
| CCCCCCCCCCCCCCCCOCC(COCC(F)(F)F)OP(=O)(O)OCO (stereo not drawn) | 0.964 |
| O=C(O)c1cc(=O)c2c(Cl)cc(Cl)cc2[nH]1 | 0.995 |
| CCCCOC(=O)NS(=O)(=O)c1sc(CC(C)C)cc1-c1ccc(Cn2c(CC)nc3c(C)cc(C)nc32)cc1 | 0.98 |

---

- TEST NAME: chemical genetic growth profiling, strain panel (AID 1159580)
- RUN CONDITIONS: S. cerevisiae deletion strains, growth OD, locus YAL026C, strain drs2, active compounds read low
Among all 5,500 compounds or so, about 2,000 (36%) were called active. About 18% were inconclusive and are not listed. This is one part of the list.
Known normalized growth of a selection of molecules

| MOLECULE | normalized growth |
| --- | --- |
| CN(C)C(=N)N=C(N)N | 1.02 |
| O=C(OC[C@H]1O[C@H](OC(=O)c2cc(O)c(O)c(OC(=O)c3cc(O)c(O)c(O)c3)c2)[C@H](OC(=O)c2cc(O)c(O)c(OC(=O)c3cc(O)c(O)c(O)c3)c2)[C@@H](OC(=O)c2cc(O)c(O)c(OC(=O)c3cc(O)c(O)c(O)c3)c2)[C@@H]1OC(=O)c1cc(O)c(O)c(OC(=O)c2cc(O)c(O)c(O)c2)c1)c1cc(O)c(O)c(OC(=O)c2cc(O)c(O)c(O)c2)c1 | 0.572 |
| CCC1(CC)C(=O)C=CNC1=O | 0.996 |
| Cc1onc(-c2ccccc2Cl)c1C(=O)N[C@@H]1C(=O)N2[C@@H]1SC(C)(C)[C@@H]2C(=O)O | 1.02 |
| CC1(C)S[C@@H]2[C@H](NC(=O)[C@H](C(=O)O)c3cccs3)C(=O)N2[C@H]1C(=O)O | 1.02 |
| Cc1onc(-c2c(Cl)cccc2Cl)c1C(=O)N[C@@H]1C(=O)N2[C@@H]1SC(C)(C)[C@@H]2C(=O)O | 1.02 |
| CC(=O)[C@@]1(O)CCC2C3CCC4=CC(=O)CC[C@]4(C)C3CC[C@@]21C (stereo partly drawn) | 0.992 |
| Cc1onc(-c2ccccc2)c1C(=O)NC1C(=O)N2[C@@H]1SC(C)(C)[C@@H]2C(=O)O (stereo partly drawn) | 1.01 |

---

Known normalized growth of a selection of compounds
- TEST NAME: chemical genetic growth profiling, strain panel (AID 1159580);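 note: tested at 20 µM; growth read once vehicle control cultures reached saturation at 30 °C; 1 = growth at the plate median or of vehicle wells; lower values mean less growth of the strain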
- RUN CONDITIONS: S. cerevisiae deletion strains, growth OD, locus YJL095W, strain BCK1, active compounds read low
Out of some 5,500 compounds screened, about 2,000 (36%) were called active. Inconclusive results (about 18%) are left out. This is one part of the list.

| COMPOUND | normalized growth |
| --- | --- |
| O1[As]2O[As]3O[As]1O[As](O2)O3 | 0.983 |
| COc1c2c(cc3c1OCO3)C13C=C[C@H](OC)CC1N(C2)CC3O (stereo partly specified) | 0.975 |
| CC(=O)Oc1cccc(C(=O)O)c1OC(C)=O | 1.01 |
| CC(=O)[C@@]12O[C@](C)(c3ccccc3)O[C@@H]1CC1C3CCC4=CC(=O)CC[C@]4(C)C3CC[C@@]12C (stereo partly specified) | 0.901 |
| NCCNCCNCCN | 0.989 |
| OC(CSc1ccccc1)CN1CCN(c2nc(-c3ccccc3)ns2)CC1 (stereo unspecified) | 0.947 |

---

- TEST NAME: chemical genetic growth profiling, strain panel (AID 1159580);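 note: tested at 20 µM; growth read once vehicle control cultures reached saturation at 30 °C; 1 = growth at the plate median or of vehicle wells; lower values mean less growth of the strain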
- RUN CONDITIONS: S. cerevisiae deletion strains, growth OD, locus YPL106C, strain sse1, active compounds read low
In all, about 5,500 compounds went through this assay and about 2,000 (36%) were called active. Inconclusive results (about 18%) are left out. This is one part of the list.
Known normalized growth of a selection of molecules
MEASURED PARAMETER: normalized growth

| MOLECULE | MEASURED PARAMETER | RECORDED NUMBER |
| --- | --- | --- |
| COc1cc2cc3c4cc(OC)c(OC)cc4cc[n+]3c(C)c2cc1OC | normalized growth | 0.983 |
| CC(=O)O[C@H]1CC[C@]2(C)C3CC[C@@]4(C)C(CC5O[C@@]6(CCC(C)CO6)[C@@H](C)C54)C3CC[C@@H]2C1 (stereo partly specified) | normalized growth | 0.978 |
| NCCc1cc(O)c(O)cc1O | normalized growth | 0.847 |
| C[C@]12CCC3C(CC[C@H]4C[C@H](OS(=O)(=O)O)CC[C@]34C)C1CCC2=O (stereo partly specified) | normalized growth | 1.1 |
| CC(=O)O[C@H]1CC[C@]2(C)C3CC(=O)[C@]4(C)C(C(C)=O)=CCC4C3CC[C@H]2C1 (stereo partly specified) | normalized growth | 0.976 |
| CN(C)C(=N)N=C(N)N | normalized growth | 1.09 |
| CC(=O)O[C@@H]1CC[C@]2(C)C3CC[C@]4(C)C(=O)CCC4C3CC[C@H]2C1 (stereo partly specified) | normalized growth | 1.03 |
| C1CCC(C(CC2CCCCN2)C2CCCCC2)CC1 (stereo unspecified) | normalized growth | 0.984 |
| COc1cc(NS(=O)(=O)c2ccc(N)cc2)ncn1 | normalized growth | 0.969 |
| NC(N)=NC(N)=Nc1ccccc1 | normalized growth | 0.955 |
| CC(=O)[O][Hg][c]1ccccc1 | normalized growth | 0.1 |

---

- TEST NAME: chemical genetic growth profiling, strain panel (AID 1159580);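 note: tested at 20 µM; growth read once vehicle control cultures reached saturation at 30 °C; 1 = growth at the plate median or of vehicle wells; lower values mean less growth of the strain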
- RUN CONDITIONS: S. cerevisiae deletion strains, growth OD, locus YOR083W, strain WHI5
Among all 5,500 compounds or so, about 2,000 (36%) were called active. Another 18% or so got no clear call; they are omitted. Rule as the data show it: active = normalized growth mostly below about 0.91 (no sharp cut-off); inconclusive = no clear call, values can overlap the other calls; inactive = mostly above about 0.92. This is one part of the list.
Outcome codes: active, inactive

| MOLECULE | DISCRETE LABEL |
| --- | --- |
| CO[C@H]1C[C@H](O[C@H]2[C@H](C)[C@@H](OC3O[C@H](C)C[C@H](N(C)C)[C@H]3OC(C)=O)[C@@H](C)C[C@]3(CO3)C(=O)[C@H](C)[C@@H](OC(C)=O)[C@@H](C)[C@@H](C)OC(=O)[C@@H]2C)O[C@@H](C)[C@@H]1OC(C)=O (some centres undefined) | inactive |
| C[C@]12CCC(=O)C=C1CCC1C2C(=O)C[C@@]2(C)C1CC[C@]2(O)C(=O)CO (some centres undefined) | inactive |
| CC(=O)OCC(=O)[C@@]1(O)CCC2C3CCC4=CC(=O)CC[C@]4(C)C3[C@@H](O)C[C@@]21C (some centres undefined) | inactive |
| C#C[C@]1(O)CCC2C3CCC4=Cc5oncc5C[C@]4(C)C3CC[C@@]21C (some centres undefined) | inactive |
| C#CC1(O)CCC2C3CCC4=CC(=O)CCC4(C)C3CCC21C (centres undefined) | inactive |
| O=c1oc2c(O)c(O)cc3c(=O)oc4c(O)c(O)cc1c4c23 | active |
| CC(=O)NS(=O)(=O)c1ccc(NC(=O)c2ccccc2C(=O)O)cc1 | inactive |
| CC1(C)C(=O)[C@@H]2C[C@@]3(O)C4=CC(=O)O[C@@H](c5ccoc5)[C@]4(C)CCC3[C@@](C)(C2=O)[C@H]1CC(=O)O (some centres undefined) | inactive |
| COC(=O)C[C@H]1C(C)(C)[C@@H](O)[C@@H]2CC3=C4C=C(OC)O[C@@H](c5ccoc5)[C@]4(C)CCC3[C@@]1(C)C2=O (some centres undefined) | inactive |

Each recorded value in this set is attributed to PubChem BioAssay AID1159580.
